system: E57 (patient-derived glioblastoma stem cells of mesenchymal subtype); assay: phenotypic distance (Euclidean, principal components) from DMSO controls (arbitrary units); higher = stronger morphological change; details: 37 nM; exposure time: 72 h
Structures can show the parent of a compound that is named as a salt.
Label Yes when phenotypic distance is at or above 0.6; anything below gets No.

• Cc1ncc(CO)c(CO)c1O [Pyridoxine hydrochloride] = No
• C#C[C@]1(O)CC[C@H]2[C@@H]3CCC4=CCCC[C@@H]4[C@H]3CC[C@@]21C [Lynestrenol] = No
• C[C@@H]1C[C@@H]([C@H](O)CC2CC(=O)NC(=O)C2)C(=O)[C@@H](C)C1 [Cycloheximide] = Yes

Is the recorded value of phenotypic distance equal to or greater than 0.6 for this compound? CCC1=C[C@@H]2CN(C1)Cc1c([nH]c3ccccc13)[C@@](C(=O)OC)(c1cc3c(cc1OC)N(C)[C@H]1[C@@](O)(C(=O)OC)[C@H](OC(C)=O)[C@]4(CC)C=CCN5CC[C@]31[C@@H]54)C2 [Vinorelbine Tartrate]
Yes

Is the recorded value of phenotypic distance equal to or greater than 0.6 for this compound? COc1ccc(/C=C\c2cc(OC)c(OC)c(OC)c2)cc1OP(=O)(O)O [Fosbretabulin Disodium]
No

Is the recorded value of phenotypic distance equal to or greater than 0.6 for this compound? CCCCC(CC)CNC(=N)NC(=N)NCCCCCCNC(=N)NC(=N)NCC(CC)CCCC (configuration not stated) [Alexidine dihydrochloride]
No

Is the recorded value of phenotypic distance equal to or greater than 0.6 for this compound? COc1c(N2CCNC(C)C2)c(F)cc2c(=O)c(C(=O)O)cn(C3CC3)c12 (configuration not stated) [Gatifloxacin]
No

---

Measured surviving fraction accompanies every entry in the list below.
test system: E31 (patient-derived glioblastoma stem cells of proneural subtype); assay: surviving fraction (nuclei count normalised to DMSO); higher = more cells surviving (less toxic); settings: 4.1 nM; exposure time: 72 h
Structures can show the parent of a compound that is named as a salt.
I only need the number, thanks.

Here is how some compounds turned out for surviving fraction.
• c1ccc2c(c1)[I+]c1ccccc1-2 [Diphenyleneiodonium chloride] = 0.886
• Cc1ccc(/C=N/NC(=O)c2n[nH]c3c2CCCC3)cc1 = 0.95
• N=C(N)c1ccc(-c2ccc(-c3ccc(C(=N)N)cc3)o2)cc1 [Furamidine dihydrochloride] = 0.988
• CC(C)NCC(O)c1cc(O)cc(O)c1 (stereo not drawn) [Metaproterenol sulfate, orciprenaline sulfate] = 0.982

Give its surviving fraction value. Item: NCc1ccccc1CC(=O)N[C@@H]1C(=O)N2C(C(=O)O)=C(CSc3nnnn3CC(=O)O)CS[C@H]12 [Ceforanide]
0.969

Give its surviving fraction value. Item: `COc1cc2c(cc1-c1c(C)noc1C)ncc1[nH]c(=O)n([C@H](C)c3ccccn3)c12`
1.12

Give its surviving fraction value. Item: Cn1nnc2c(C(N)=O)ncn2c1=O [Temozolomide]
0.882

Give its surviving fraction value. Item: `COC(=O)C[C@](O)(CCCC(C)(C)O)C(=O)O[C@@H]1C(OC)=C[C@]23CCCN2CCc2cc4c(cc2[C@H]13)OCO4`
0.502

---

system: E57; experiment: surviving fraction (nuclei count normalised to DMSO); higher = more cells surviving (less toxic); details: 4.11523 nM; exposure time: 72 h
property-label: surviving fraction
I only need the number, thanks.

Here is how some compounds turned out for surviving fraction.
• OCCN1C[C@H](O)[C@@H](O)[C@H](O)[C@H]1CO = 1.03
• COc1cc([C@@H]2c3cc4c(cc3[C@@H](O[C@@H]3O[C@@H]5CO[C@@H](C)O[C@H]5[C@H](O)[C@H]3O)[C@H]3COC(=O)[C@H]23)OCO4)cc(OC)c1O [Etoposide] = 0.919
• Cc1ccc(NC(=O)c2ccc3c(c2)OCCO3)cc1NC(=O)c1ccc2nc(OCCN3CCCC3)ccc2c1 = 0.321
• C[C@@H](O)[C@H]1C(=O)N2C(C(=O)O)=C(S[C@@H]3CN[C@H](C(=O)N(C)C)C3)[C@H](C)[C@H]12 = 1
• O=c1c2ccccc2[se]n1-c1ccccc1 = 1.04

We now examine a further compound.
Give its surviving fraction value. Item: `O=[N+]([O-])c1ccc2c(c1)S(=O)(=O)C=C2`
0.876

Cited source for all entries: the supplement of paper PMC13207355
